- systemUnderTest: Corticosteroid-binding globulin (Homo sapiens) (UniProt P08185)

sampleSmiles: C[C@]12CC[C@H](O)CC1=CC[C@@H]1[C@@H]2CC[C@]2(C)C(=O)CC[C@@H]12
Log K: 5
//
sampleSmiles: C[C@]12CC[C@H]3[C@@H](CCC4=CC(=O)CC[C@@]43C)[C@@H]1CC[C@@H]2C(=O)CO
Log K: 7.65
//
sampleSmiles: C[C@]12CC[C@H]3[C@@H](CCC4=CC(=O)CC[C@@]43C)[C@@H]1CC[C@@H]2O
Log K: 6.72
//
sampleSmiles: CC(=O)[C@@]1(O)CC[C@H]2[C@@H]3CCC4=CC(=O)CC[C@]4(C)[C@H]3CC[C@@]21C
Log K: 7.74
//
sampleSmiles: C[C@]12CCC(=O)C=C1CC[C@@H]1[C@@H]2CC[C@]2(C)C(=O)CC[C@@H]12
Log K: 5.76
//
sampleSmiles: CC(=O)[C@@]1(O)CC[C@H]2[C@@H]3CC[C@@H]4C[C@H](O)CC[C@]4(C)[C@H]3CC[C@@]21C
Log K: 5
//
sampleSmiles: C[C@]12CC[C@H](O)C[C@@H]1CC[C@@H]1[C@@H]2CC[C@]2(C)[C@@H](O)CC[C@@H]12
Log K: 5
//
sampleSmiles: CC(=O)[C@H]1CC[C@H]2[C@@H]3CCC4=CC(=O)CC[C@]4(C)[C@H]3CC[C@]12C
Log K: 7.38
//
sampleSmiles: C[C@]12CC[C@@H]3c4ccc(O)cc4CC[C@H]3[C@@H]1C[C@@H](O)[C@@H]2O
Log K: 5
//
sampleSmiles: C[C@]12CC[C@H]3[C@@H](CCC4=CC(=O)CC[C@@H]43)[C@@H]1CC[C@@H]2O
Log K: 6.14
//
sampleSmiles: CC(=O)[C@@]1(O)[C@H](O)C[C@H]2[C@@H]3CCC4=CC(=O)CC[C@]4(C)[C@H]3CC[C@@]21C
Log K: 6.25
//
sampleSmiles: CC(=O)[C@H]1CC[C@H]2[C@@H]3CCC4=CC(=O)CC[C@]4(C)[C@H]3C(=O)C[C@]12C
Log K: 6.78
//
sampleSmiles: CC(=O)[C@H]1[C@H](C)C[C@H]2[C@@H]3CCC4=CC(=O)CC[C@]4(C)[C@H]3CC[C@@]21C
Log K: 7.12

###

- systemUnderTest: Corticosteroid-binding globulin (Homo sapiens)
- Sequence (whole entry): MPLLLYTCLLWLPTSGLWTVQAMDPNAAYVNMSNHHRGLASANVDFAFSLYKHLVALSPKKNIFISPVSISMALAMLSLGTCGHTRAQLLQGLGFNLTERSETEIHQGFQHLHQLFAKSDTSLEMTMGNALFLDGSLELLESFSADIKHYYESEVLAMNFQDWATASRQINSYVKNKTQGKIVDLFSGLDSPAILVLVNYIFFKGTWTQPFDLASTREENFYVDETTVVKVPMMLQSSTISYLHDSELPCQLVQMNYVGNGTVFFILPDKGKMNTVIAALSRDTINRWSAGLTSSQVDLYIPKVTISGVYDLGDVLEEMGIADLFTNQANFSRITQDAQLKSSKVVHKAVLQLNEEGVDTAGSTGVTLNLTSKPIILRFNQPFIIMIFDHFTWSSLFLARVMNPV
// reported Log K for each item listed

compound: C[C@]12C[C@@H](O)[C@H]3[C@@H](CCC4=CC(=O)CC[C@@]43C)[C@@H]1CC[C@@H]2C(=O)CO
Log K: 7.2

compound: C[C@@H]1C[C@@]2(C)C(=CC1=O)CC[C@H]1[C@@H]3CC[C@](O)(C(=O)CO)[C@@]3(C)C[C@H](O)[C@@]12F
Log K: 5.8

compound: CC(=O)[C@H]1CC[C@H]2[C@@H]3CCC4=CC(=O)CCC4[C@H]3CC[C@]12C (some centres undefined)
Log K: 6.82

compound: C[C@]12CCC(=O)C=C1CCC1[C@@H]2[C@@H](O)C[C@@]2(C)[C@H]1CC[C@]2(O)C(=O)CO (single isomer, unassigned)
Log K: 7.88
